B1: Azoarcus group I ribozyme (parent)
chain: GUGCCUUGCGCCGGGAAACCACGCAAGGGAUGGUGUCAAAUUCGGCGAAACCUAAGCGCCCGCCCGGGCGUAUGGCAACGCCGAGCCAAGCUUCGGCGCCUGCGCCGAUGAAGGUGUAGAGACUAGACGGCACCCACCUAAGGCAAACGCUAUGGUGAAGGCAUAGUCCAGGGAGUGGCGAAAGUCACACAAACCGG

- Variants of: B1
- method.description: reverse-splicing fitness (ratio to wild type); higher = more active; in vitro selection; Mg2+ level not given
Outcome label depends on reverse-splicing fitness relative to 0.01: at/above gives criterion met, below gives criterion not met.

Below are worked cases with known answers.
| mut | group.label |
| --- | --- |
| C82G A111G A120C C169G U176A | criterion met |
| C82U A111U A120C A145U C150A U176C | criterion not met |
| C82G A111C A120C A145U C150A | criterion met |
| C82A A111G A120G A145U C150U C169U | criterion not met |

Input: I'd appreciate it if you could say whether A120G A145G C150U U176G has reverse-splicing fitness at least equal to 0.01.
Output: criterion met

Input: I'd appreciate it if you could say whether C82A A111C A120C C150A C169G U176G has reverse-splicing fitness at least equal to 0.01.
Output: criterion not met

Input: I'd appreciate it if you could say whether C82G A111U A145C C150U C169G U176C has reverse-splicing fitness at least equal to 0.01.
Output: criterion met
